Below, each entry is listed with its recorded logP.
readout type: logP

sample_smiles=CNC(Cc1ccccc1)Cc1ccccc1 measured_result=3.8
sample_smiles=C[C@H]1O[C@@H](O[C@H]2CC[C@@]3(C)[C@H](CC[C@@H]4[C@@H]3CC[C@]3(C)[C@@H](C5=CC(=O)OC5)[C@@H](O)C[C@]43O)C2)C[C@H](O)[C@@H]1O measured_result=1.77
sample_smiles=CC(=O)O[C@H]1C[C@H](O[C@H]2[C@@H](O)C[C@H](O[C@H]3[C@@H](O)C[C@H](O[C@H]4CC[C@@]5(C)[C@H](CC[C@@H]6[C@@H]5C[C@@H](O)[C@]5(C)[C@@H](C7=CC(=O)OC7)CC[C@]65O)C4)O[C@@H]3C)O[C@@H]2C)O[C@H](C)[C@H]1O measured_result=1.97
sample_smiles=CON=C(C(=O)N[C@@H]1C(=O)N2C(C(=O)O)=C(COC(N)=O)CS[C@H]12)c1ccco1 measured_result=-0.16

---

logP vs 2: less than gives 1 (yes); not less than gives 0 (no).

molecule=CCc1ccc(C2C(=O)c3ccccc3C2=O)cc1 class="0 (no)"
molecule=Cc1cc2c(ccc3ccc(=O)oc32)o1 class="0 (no)"
molecule="CC(=O)Nc1nc(NCC(O)CO)c(Cl)nc1[N+](=O)[O-] (stereo unspecified)" class="1 (yes)"
molecule="COc1ccc(CCNCC(O)COc2ccc(-c3ncc(C)[nH]3)cc2OC)cc1OC (stereo unspecified)" class="1 (yes)"
molecule=O=C1C[N+]([O-])=C(c2ccccc2)c2cc(Cl)ccc2N1 class="1 (yes)"
molecule=Cc1ccc(S(=O)(=O)NC(=O)NC2CCCCC2)cc1 class="0 (no)"

---

Think of 2 as a floor: if logP stands on it or above, it is 1 (yes); beneath it, 0 (no).

sample_smiles=COc1cc(CCN)cc(OC)c1OCc1ccccc1 class="1 (yes)"
sample_smiles=O=Nc1ccc(O)c(=O)cc1 class="0 (no)"
sample_smiles=CCOC(=O)C1=C(C)OC(=Cc2ccc(OC)cc2)C1=O class="1 (yes)"
sample_smiles=OCc1cc(Cl)cc(Cl)c1O class="1 (yes)"
sample_smiles=Nc1ccc(O)c2ncccc12 class="0 (no)"
sample_smiles=CCC1(CC)C(=O)N=C(OC(C)C)NC1=O class="0 (no)"
sample_smiles=Cc1cc(N=O)ccc1O class="0 (no)"
sample_smiles=CCNc1ccc(C(=O)OCCN(C)C)cc1 class="1 (yes)"

---

Items are presented alongside their recorded logP.
readout type: logP

molecule=c1ccc(-c2cn[nH]n2)cc1 readout_type=logP measured_result=1.91
molecule="COCCc1cnc(-c2ccc(OCC(O)CNCCc3ccc(OC)c(OC)c3)cc2)[nH]1 (configuration not stated)" readout_type=logP measured_result=2.06
molecule=Cc1ccc(S(=O)(=O)NC(=O)NN2CCCCC2)cc1 readout_type=logP measured_result=1.34
molecule="OC(CNCCc1ccncc1)COc1ccc(-c2ncc(-c3cccs3)[nH]2)cc1 (configuration not stated)" readout_type=logP measured_result=2.25
molecule="C=CCOc1ccc(C(=O)c2ccc3n2CCC3C(=O)O)cc1 (configuration not stated)" readout_type=logP measured_result=3.48
molecule="CNC(=O)COc1cccc(OCC(O)CNC(C)C)c1 (configuration not stated)" readout_type=logP measured_result=0.35
molecule=Cc1ccc(S(=O)(=O)NC(=O)NN2CCCCCC2)cc1 readout_type=logP measured_result=2.69
molecule=O=C(O)c1ccc(Cl)cc1Nc1cccc(Br)c1 readout_type=logP measured_result=5.16
molecule=c1ccc(-c2cc3ccccc3cn2)nc1 readout_type=logP measured_result=3.05
molecule="C1CC2OC2CC1C1CO1 (configuration not stated)" readout_type=logP measured_result=0.44
molecule="Cn1nnnc1SCC1=C(C(=O)OCOC(=O)C(C)(C)C)N2C(=O)C(NC(=O)C(O)c3ccccc3)C2SC1 (configuration not stated)" readout_type=logP measured_result=0.85
molecule=CCCCC/C=C\C/C=C\C/C=C\C/C=C\CCCC(=O)O readout_type=logP measured_result=6.98

---

readout type: logP

compound="CCN1CC(C(O)C(CC2CCCCC2)NC(=O)C(Cc2cnc[nH]2)NC(=O)C(Cc2ccc(OC)cc2)NC(=O)N2CC(O)C(O)C2)OC1=O (configuration not stated)" measured_result=1.22
compound=CCN(CC)CCCCCCC(=O)Nc1c(C)cccc1C measured_result=3.48
compound=O=C(O)CCC(=O)c1ccccc1 measured_result=1.3
compound="C=C(C)C(=O)OCC(O)COc1ccccc1 (configuration not stated)" measured_result=2.27
compound=O=C(CCN1CCC(O)(c2ccc(Cl)cc2)CC1)c1ccc(F)cc1 measured_result=3.24
compound=CCCCCCCc1ccncc1 measured_result=5
compound="O=C(c1ccc(F)cc1)c1ccc2n1CCC2C(=O)O (configuration not stated)" measured_result=2.82
compound=CC1(C)CCC(c2ccccc2)(N2CCCCC2)CC1 measured_result=6.39
compound=Oc1ccc(O)c2ccccc12 measured_result=1.9
compound=Cc1ncc(NS(=O)(=O)c2ccc(N)cc2)c(C)n1 measured_result=0.59
compound=CC(C)(C)c1cccc(O)c1 measured_result=3.3
compound="Nc1ccn(C2OC(CCl)C(O)C2O)c(=O)n1 (configuration not stated)" measured_result=-1.05
compound=CCc1ccc(CC(=O)O)cc1 measured_result=2.25
compound="CCC1(c2ccccc2)C(=O)NC(=O)N=C1OC(C)C (configuration not stated)" measured_result=2.22
compound=O=S(=O)(O)c1cccc2c(O)cccc12 measured_result=-0.17
compound=Fc1ccc(F)c(F)c1 measured_result=2.52
compound="C=C1C(=O)OC2CC3(C)CCCC(C)C3=CC12 (configuration not stated)" measured_result=3.38
compound=Cc1cc2ccccc2o1 measured_result=3.22
compound="COC(=O)C1C(C=C2CCSC2=O)C1(C)C (configuration not stated)" measured_result=2.33
compound=CCN(CC)CCOC(=O)/C=C/c1ccccc1 measured_result=3.61
compound="OC(Cn1ccnc1)(c1ccc(Cl)cc1)c1ccc(-c2ccncc2)cc1 (configuration not stated)" measured_result=3.27
compound="Cc1cccc(C)c1NC(=O)C(C)N (configuration not stated)" measured_result=0.76
compound=C=C1C(=O)O[C@H]2[C@H]1[C@H](OC(=O)/C(C)=C\C)CC(=C)[C@@H]1[C@H](O)[C@H]3O[C@@]3(C)[C@@]12O measured_result=1.69
compound="CCCCC(CCC)C(=O)O (configuration not stated)" measured_result=3.01
compound=Nc1ncc(Cc2cccc(Cl)c2)c(N)n1 measured_result=2.29
compound=C=C(C)OCc1ccccc1 measured_result=2.41
compound="COc1ccc(CCNCC(O)COc2ccc(-c3ncc(Cl)[nH]3)cc2)cc1OC (configuration not stated)" measured_result=2.4

---

Catalogue of logP values
readout type: logP

molecule=CCCCOC(=O)COc1cc(Cl)c(Cl)cc1Cl measured_result=4.81
molecule="ClC1=C(Cl)C2(Cl)C3C4OC4C(Cl)C3C1(Cl)C2(Cl)Cl (stereo not drawn)" measured_result=4.98
molecule="CCC(O)(C(N)=O)c1ccccc1 (stereo not drawn)" measured_result=1.2
molecule=Nc1ccc(S(=O)(=O)Nc2ccc([N+](=O)[O-])cc2)cc1 measured_result=2.14
molecule=Cc1cn([C@H]2C=C[C@@H](CO)O2)c(=O)[nH]c1=O measured_result=-0.72
molecule="CC1CC2C3CC(F)C4=CC(=O)C(Cl)=CC4(C)C3(Cl)C(O)CC2(C)C1(O)C(=O)COC(=O)C(C)(C)C (stereo not drawn)" measured_result=4.73
molecule=O=C(CBr)c1ccccc1 measured_result=2.19
molecule="CC(N)CC1CCCCC1 (stereo not drawn)" measured_result=2.96
molecule=CC(=Cc1ccccc1)C(=O)O measured_result=2.6
molecule=CCCCc1ccc(O)cc1 measured_result=3.65
molecule=CCc1nc(N)nc(N)c1-c1ccc(Cl)c(Cl)c1 measured_result=3.03
molecule="Cc1ccccc1C(=O)c1ccc2n1CCC2C(=O)O (stereo not drawn)" measured_result=2.9
molecule="OC1(c2ccc(Cl)cc2)CCCCCC1n1cncn1 (stereo not drawn)" measured_result=3.54

---

This section presents compounds with their documented logP values.
readout type: logP

compound=Cc1cnc([N+](=O)[O-])n1CCO readout_type=logP measured_result=0.18
compound=OCc1cc(Br)ccc1O readout_type=logP measured_result=1.72
compound="COc1cccc2c1C(=O)c1c(O)c3c(c(O)c1C2=O)CC(O)(C(C)=O)CC3OC1CC(N2CCOCC2C#N)C(O)C(C)O1 (configuration not stated)" readout_type=logP measured_result=2.59
compound=O=C1C(N2CCN(CCO)CC2)=C(N2CC2)C(=O)C(N2CCN(CCO)CC2)=C1N1CC1 readout_type=logP measured_result=-0.77
compound=C=C(C)C(=O)OCCOCCOCCOC(=O)C(=C)C readout_type=logP measured_result=1.88
compound="COc1ccc(N2Cn3c(nc4ccccc4c3=O)C2C)cc1 (configuration not stated)" readout_type=logP measured_result=1.73
compound="COc1ccc(CCNCC(O)COc2ccc(-c3nc(C(C)=O)c(C)[nH]3)cc2)cc1OC (configuration not stated)" readout_type=logP measured_result=2.14
compound="COc1ccc(C(O)(Cn2ccnc2)c2ccc(Br)cc2)cc1 (configuration not stated)" readout_type=logP measured_result=4.02
compound="CC(=O)c1nc([N+](=O)[O-])n(CC(C)O)c1C (configuration not stated)" readout_type=logP measured_result=0.37
compound=Oc1ccc2cc(O)ccc2c1 readout_type=logP measured_result=1.9
compound=CCN1CCCCC1 readout_type=logP measured_result=1.75
compound=Cc1ccc(CCN)cc1 readout_type=logP measured_result=1.83

Recorded values, source the OPERA property sets (Mansouri et al. 2018).
